Recorded IC50 values for a group of molecules are listed next.
# measured-target: human TLR7 (Homo sapiens)
# Sequence (Q9NYK1 27-1049): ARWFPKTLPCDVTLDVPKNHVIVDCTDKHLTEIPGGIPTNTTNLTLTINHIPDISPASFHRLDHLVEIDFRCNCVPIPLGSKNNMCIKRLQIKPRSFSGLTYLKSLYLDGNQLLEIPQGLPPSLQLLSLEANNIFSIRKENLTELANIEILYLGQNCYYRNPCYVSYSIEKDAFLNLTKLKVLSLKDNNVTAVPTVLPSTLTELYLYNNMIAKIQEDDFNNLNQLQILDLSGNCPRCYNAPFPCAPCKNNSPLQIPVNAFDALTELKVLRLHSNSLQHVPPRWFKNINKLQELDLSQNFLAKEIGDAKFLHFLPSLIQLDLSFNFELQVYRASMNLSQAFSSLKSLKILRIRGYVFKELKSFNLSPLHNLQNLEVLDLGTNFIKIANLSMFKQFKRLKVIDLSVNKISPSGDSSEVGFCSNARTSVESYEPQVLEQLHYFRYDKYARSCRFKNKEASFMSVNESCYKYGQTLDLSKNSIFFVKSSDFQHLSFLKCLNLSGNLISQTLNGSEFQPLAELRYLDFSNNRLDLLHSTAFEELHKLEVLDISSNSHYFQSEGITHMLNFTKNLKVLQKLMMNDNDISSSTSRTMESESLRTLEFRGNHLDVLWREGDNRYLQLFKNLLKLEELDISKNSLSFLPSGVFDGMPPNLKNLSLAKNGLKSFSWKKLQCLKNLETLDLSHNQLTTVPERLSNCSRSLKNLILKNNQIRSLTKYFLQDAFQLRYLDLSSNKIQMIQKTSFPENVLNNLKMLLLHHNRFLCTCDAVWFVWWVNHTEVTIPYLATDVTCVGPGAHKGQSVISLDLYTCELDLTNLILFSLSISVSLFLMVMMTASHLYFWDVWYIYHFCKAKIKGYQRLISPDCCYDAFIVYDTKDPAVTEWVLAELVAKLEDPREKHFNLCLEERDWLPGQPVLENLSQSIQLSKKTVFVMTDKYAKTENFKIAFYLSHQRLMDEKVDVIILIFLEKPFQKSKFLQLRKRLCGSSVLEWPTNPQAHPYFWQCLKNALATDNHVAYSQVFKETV
# test-summary: TLR7 inhibition reporter assay (HEK-Blue cells, SEAP reporter, gardiquimod stimulation)
# condition-details: HEK-Blue cells overexpressing human TLR7, SEAP reporter, gardiquimod 7.5 μM

CCc1c(-c2ccnc3[nH]cc(CC)c23)[nH]c2ccc(C3CCNCC3)cc12 [Example 220] | 100 to 1000 nM

[in] // fetch IC50 given entry Cc1cc2nnnn2cc1-c1[nH]c2ccc(C3CCN(Cc4ccn(C)n4)CC3)cc2c1C(C)C [Example 887]
[out] < 100 nM

[in] // fetch IC50 given entry CCc1c(-c2ccn3cnnc3c2)[nH]c2ccc(C3CCNCC3)cc12 [Example 204]
[out] 100 to 1000 nM

[in] // fetch IC50 given entry CCc1c(-c2cnc3ncccn23)[nH]c2ccc(C3CCNCC3)cc12 [Example 29]
[out] 100 to 1000 nM

[in] // fetch IC50 given entry CC(C)c1c(-c2cn(C)c3ncccc23)[nH]c2ccc(C3CCN(C4COC4)CC3)cc12 [Example 733]
[out] < 100 nM

[in] // fetch IC50 given entry Cc1cc(-c2[nH]c3ccc(C4CCN(C5COC5)CC4)cc3c2C(C)C)c(C)n2nnnc12 [Example 740]
[out] 100 to 1000 nM

[in] // fetch IC50 given entry Cc1cc(-c2[nH]c3ccc(C4CCN(CC(C)(C)O)CC4)cc3c2C(C)C)cc2cnn(C)c12 [Example 762]
[out] 100 to 1000 nM

[in] // fetch IC50 given entry Cc1cc(-c2[nH]c3ccc(C4CCNCC4)cc3c2C(C)C)cn2nncc12 [Example 70]
[out] 100 to 1000 nM

[in] // fetch IC50 given entry CCc1c(-c2cnc3cncc(OC)n23)[nH]c2ccc(C3CCNCC3)cc12 [Example 25]
[out] 1000 to 50000 nM

[in] // fetch IC50 given entry Cc1ccnc2[nH]cc(-c3[nH]c4ccc(C5CCN(C6CCOCC6)CC5)cc4c3C(C)C)c12 [Example 690]
[out] < 100 nM

[in] // fetch IC50 given entry Cc1cc(-c2[nH]c3ccc(C4CCN(C(=O)CN(C)C(C)C)CC4)cc3c2C(C)C)cn2nnnc12 [Example 480]
[out] < 100 nM

[in] // fetch IC50 given entry Cc1nn2ccc(-c3[nH]c4ccc(C5CCN(CC(=O)N(C)C)CC5)cc4c3C(C)C)cc2c1F [Example 399]
[out] < 100 nM

[in] // fetch IC50 given entry CC(CN(C)C)CN1CCC(c2ccc3[nH]c(-c4ccnc5[nH]ncc45)c(C(C)C)c3c2)CC1 (stereo not shown) [Example 846]
[out] < 100 nM

[in] // fetch IC50 given entry Cc1c(-c2ccnc3[nH]ncc23)[nH]c2ccc(C3CCNCC3)cc12 [Example 231]
[out] 100 to 1000 nM

[in] // fetch IC50 given entry CC(C)c1c(-c2ccnc3c2ncn3C)[nH]c2ccc(C3CCNCC3)cc12 [Example 45]
[out] 100 to 1000 nM

[in] // fetch IC50 given entry Cc1cc(-c2[nH]c3ccc(C4CCN(C(=O)CN(C)C)CC4)cc3c2C(C)C)cc2nccnc12 [Example 518]
[out] < 100 nM
